- Test System: T1, Histidine-tagged human PD-1 protein (hPD-1-His) (human, UniProt Q15116 25-170, limits assumed)
- T1 construct: Soluble analyte in SPR; not shown: histidine tag
- T1 sequence (Q15116 25-170 limits assumed): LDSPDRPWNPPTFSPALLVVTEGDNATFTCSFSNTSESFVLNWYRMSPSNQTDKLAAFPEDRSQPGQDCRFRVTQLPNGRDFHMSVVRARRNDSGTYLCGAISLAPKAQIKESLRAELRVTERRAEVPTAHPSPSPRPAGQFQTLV
- Measurement Protocol: SPR (Biacore T200), antibody captured on Protein A chip, hPD-1-His analyte, 1:1 fit
Below: a set of entries, each annotated with reported kon.
Supply the numeric figure in M⁻¹ s⁻¹, leaving out any unit text.

Examples with their reported kon follow.
{"Binder": "3F1-mHvKv-IgG4-S228P (antibody, V domains shown, Chimeric antibody: mouse 3F1 variable domains, human IgG4 constant domains (CL, CH1, CH2, CH3) with S228P (EU numbering); also called 18-3F1-mHvKv-IgG4-S228P; 3F1-mHyKy-IgG4-S228P) VH: QVQLQQSGAELAKPGASVKMSCKASGYTFTSYWMHWVKQRPGQGLEWIGYINPSTGYTEYNQKFKDKATLTADKSSSTAYMQLSSLTSEDSAVYYCARGVRYYFDYWGQGTTLTVSS VL: DIVMSQSPSSLAVSAGEKVTMSCKSSQSLLNSRTRKNYLAWYQQKPGQSPKLLIYWASTRESGVPDRFTGSGSGTDFTLTISSVQAEDLAVYYCKQSYNLLTFGAGTKLELK", "Unit Tag": "M⁻¹ s⁻¹", "kon": 3700}
{"Binder": "3F1-H2K1-IgG4-S228P (antibody, V domains shown, Humanized; human IgG4 constant domains with S228P (EU numbering)) VH: QVQLQQSGAEVKKPGASVKMSCKASGYTFTSYWMHWVKQRPGQGLEWIGYINPSTGYTEYNQKFKDRATLTADKSTSTAYMELSSLRSEDTAVYYCARGVRYYFDYWGQGTLVTVSS VL: DIVMTQSPDSLAVSLGERATISCKSSQSLLNSRTRKNYLAWYQQKPGQSPKLLIYWASTRESGVPDRFSGSGSGTDFTLTISSVQAEDVAVYYCKQSYNLLTFGQGTKLELK", "Unit Tag": "M⁻¹ s⁻¹", "kon": 4550}
{"Binder": "3F1-H3K3-IgG4-S228P (antibody, V domains shown, Humanized; human IgG4 constant domains with S228P (EU numbering)) VH: QVQLQQSGAEVAKPGASVKMSCKASGYTFTSYWMHWVKQRPGQGLEWIGYINPSTGYTEYNQKFKDRATLTADTSTSTAYMELSSLRSEDTAVYYCARGVRYYFDYWGQGTLLTVSS VL: DIVMTQSPSSLAVSAGERVTMSCKSSQSLLNSRTRKNYLAWYQQKPGQSPKLLIYWASTRESGVPDRFSGSGSGTDFTLTISSVQAEDVAVYYCKQSYNLLTFGQGTKLELK", "Unit Tag": "M⁻¹ s⁻¹", "kon": 4380}

I would be grateful if you could share the reported kon for 3F1-H1K1-IgG4-S228P (antibody, V domains shown, Humanized; human IgG4 constant domains with S228P (EU numbering)) VH: QVQLQQSGAEVKKPGASVKMSCKASGYTFTSYWMHWVRQAPGQGLEWIGYINPSTGYTEYNQKFKDRATLTADTSTSTAYMELSSLRSEDTAVYYCARGVRYYFDYWGQGTLVTVSS VL: DIVMTQSPDSLAVSLGERATISCKSSQSLLNSRTRKNYLAWYQQKPGQSPKLLIYWASTRESGVPDRFSGSGSGTDFTLTISSVQAEDVAVYYCKQSYNLLTFGQGTKLELK .
4810

Suppose we examine the binder 1A7-H1K1-IgG4-S228P (antibody, V domains shown, Humanized; human IgG4 constant domains with S228P (EU numbering)) VH: EVQLLESGGGLVQPGGSLRLSCAASGFTFSSYSMSWVRQAPGKRLEWVAHISSGGSSTYYPDTVKGRFTISRDNSKNTLYLQMNSLRAEDTAMYYCTRQFYYGSSFWYFDVWGQGTTVTVSS VL: DNVLTQSPATLSLSPGERATLSCKASQSVDFDGDSYMNWYQQKPGQPPRLLIYAASNLESGIPARFSGSGPGTDFTLTISSLEPEDFATYYCQQSNEDPPTFGGGTKVEIK ; what kon value has been reported?
56800
